System: HepG2-A16 (human hepatoma) cells
SETTINGS: HepG2 vs IPC4912
hey, just use Fulfilled if measured Selectivity index LD50 (HepG2)/IC50 (IPC4912) is less than 30000, otherwise Not fulfilled

Answer whether the compound C1C2CC3CC1CC(C2)C31OOC2(CCC(Nc3nnn[nH]3)CC2)O1 (centres unmarked) [LC136] has Selectivity index LD50 (HepG2)/IC50 (IPC4912) strictly less than 30000
Not fulfilled

Please determine if CCCCNC(=O)C1CCC2(CC1)OOC1(O2)C2CC3CC(C2)CC1C3 (centres unmarked) [LC92] is below 30000 in terms of Selectivity index LD50 (HepG2)/IC50 (IPC4912).
Fulfilled

I wonder whether CC(C)(C)OC(=O)NCCCCNC1CCC2(CC1)OOC1(O2)C2CC3CC(C2)CC1C3 (centres unmarked) [MIS14] has Selectivity index LD50 (HepG2)/IC50 (IPC4912) below 30000. Can you tell?
Fulfilled

Quick check: Selectivity index LD50 (HepG2)/IC50 (IPC4912) of CC(C)(C)OC(=O)NCCCCNC(=O)C1CCC2(CC1)OOC1(O2)C2CC3CC(C2)CC1C3 (centres unmarked) [MIS13] under 30000?
Not fulfilled

# strict comparison: is reported Selectivity index LD50 (HepG2)/IC50 (IPC4912) < 30000? input = Cn1nnc(NCC2CCC3(CC2)OOC2(O3)C3CC4CC(C3)CC2C4)n1 (centres unmarked) [LC131]
Not fulfilled

* * *

System: HepG2-A16 (human hepatoma) cells
SETTINGS: HepG2 vs IPC5202
Can you tell me Selectivity index LD50 (HepG2)/IC50 (IPC5202) for the items I'm about to list?
One number for each entry.

# MOLECULE, DATA_VALUE
records = [
    ("C1C2CC3CC1CC(C2)C31OOC2(CCC(Nc3nnn[nH]3)CC2)O1 (stereo not shown) [LC136]", 163934.4),
    ("c1ccc(-n2nnnc2OCC2CCC3(CC2)OOC2(O3)C3CC4CC(C3)CC2C4)cc1 (stereo not shown) [LC132]", 40000.0),
    ("C1C2CC3CC1CC(C2)C31OOC2(CCC(Nc3nnn[nH]3)CC2)OO1 (stereo not shown) [LC163]", 14064.7),
    ("CC(C)(C)OC(=O)NCCCCNC1CCC2(CC1)OOC1(O2)C2CC3CC(C2)CC1C3 (stereo not shown) [MIS14]", 798.8),
    ("CC(C)(C)OC(=O)NCCCCNC(=O)C1CCC2(CC1)OOC1(O2)C2CC3CC(C2)CC1C3 (stereo not shown) [MIS13]", 194117.6),
]

Below are 2 molecules. Give each one its Selectivity index LD50 (HepG2)/IC50 (IPC5202).
1. CCCCNC(=O)C1CCC2(CC1)OOC1(O2)C2CC3CC(C2)CC1C3 (stereo not shown) [LC92]
2. Cn1nnc(NCC2CCC3(CC2)OOC2(O3)C3CC4CC(C3)CC2C4)n1 (stereo not shown) [LC131]

1: 26525.2; 2: 294117.6

Dear colleague, could you send me Selectivity index LD50 (HepG2)/IC50 (IPC5202) for each of the items below? Thanks.
1. C[C@@H]1CC[C@H]2[C@@H](C)C(=O)O[C@@H]3O[C@@]4(C)CC[C@@H]1[C@]32OO4 [ART, artemisinin, reference compound]
2. O=S1(=O)N=C(NCC2CCC3(CC2)OOC2(O3)C3CC4CC(C3)CC2C4)c2ccccc21 (stereo not shown) [LC130]
3. O=S1(=O)N=C(OCC2CCC3(CC2)OOC2(O3)C3CC4CC(C3)CC2C4)c2ccccc21 (stereo not shown) [LC129]

12499.5
121951.2
27502.7
